Consider the following binders; for each one, report its Kd.
# Tgt: T1, human GPVI-Fc fusion protein (human, UniProt Q9HCN6 21-267, limits assumed)
# T1 construct: also called human GPVI protein antigen
# T1 sequence (looked up): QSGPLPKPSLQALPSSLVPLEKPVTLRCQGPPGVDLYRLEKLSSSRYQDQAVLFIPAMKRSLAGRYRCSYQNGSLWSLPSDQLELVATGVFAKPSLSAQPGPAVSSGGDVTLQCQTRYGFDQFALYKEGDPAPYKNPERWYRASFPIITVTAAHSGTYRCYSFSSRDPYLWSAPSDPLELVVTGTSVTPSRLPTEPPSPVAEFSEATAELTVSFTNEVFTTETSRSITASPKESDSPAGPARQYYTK
# Method Summary: BLI (Octet), GPVI-Fc on biosensor, 1:1 fit

INPUT: May I ask what Kd has been recorded for HC5 LC1 humanized Fab (Fab, V domains shown, also called VH5:VL1) VH: QVQLQESGPGLVKPSETLSLTCTVSGFSLTSYGVTWIRQPPGKGLEWIGVIWGDGSTNYHSGLRSRVTISVDTSKNQFSLKLSSVTAADTAVYYCAKPIYYDFDDDAMDYWGQGTSVTVSS VL: EIVLTQSPSSLSASVGDRVTITCKASQNVGTYVAWFQQKPGKAPKSLIYSASYRCSGVPSKFSGSGSGTDFTLTISSLQPEDFATYYCHQYNNYPLTFGQGTKLEIKR ?
OUTPUT: 0.333 nM

INPUT: Another binder to look at: HC3 LC2 humanized Fab (Fab, V domains shown, also called VH3:VL2) VH: QVQLVESGGGVVQPGRSLRLSCVASGFSLTSYGVTWVRQAPGKGLEWVAVIWGDGSTNYHSGLRSRFTISRDNSKNTMFLQMNSLRADDTAVYYCAKPIYYDFDDDAMDYWGQGTLVTVSS VL: DIQMTQSPSSLSASVGDRVTITCKASQNVGTYVAWFQQRPGKAPKSLIYSASYRCSGVPSKFSGSGSGTDFTLTINSLQPEDFATYYCHQYNNYPLTFGQGTKVEIKR
OUTPUT: 0.215 nM

INPUT: Another binder to look at: HC0 LC0 chimeric Fab fragment (Fab, V domains shown, Murine variable domains with human Ig constant domains, expressed in CHO; also called HC0 LCD; chimeric control antibody) VH: QVQLKESGPGLVQPSQSLSITCTVSGFSLTSYGVTWVRQPPGKGLEWLGVIWGDGSTNYHSGLRSRLSISRDDSKSQVFLKLNSLQTDDTATYYCAKPIYYDFDDDAMDYWGQGTSVTVSS VL: DIVMTQSQKFMSTSVGDRVSVTCKASQNVGTYVAWFQQKPGQSPKTLIYSASYRCSGVPDRFTGSGSGTDFTLTISNVQSDDLAEYFCHQYNNYPLTFGAGTKLELRR
OUTPUT: 0.427 nM

INPUT: Another binder to look at: HC4 LC1 humanized Fab (Fab, V domains shown, also called VH4:VL1) VH: QVQLVESGGGVVQPGRSLRLSCAASGFSLTSYGVTWVRQSPGKGLEWVAVIWGDGSTNYHSGLRSRLTISRDNSKNTLYLEMNSLRTEDTATYYCAKPIYYDFDDDAMDYWGQGTKVTVSS VL: EIVLTQSPSSLSASVGDRVTITCKASQNVGTYVAWFQQKPGKAPKSLIYSASYRCSGVPSKFSGSGSGTDFTLTISSLQPEDFATYYCHQYNNYPLTFGQGTKLEIKR
OUTPUT: 0.425 nM

INPUT: Another binder to look at: HC5 LC4 humanized Fab (Fab, V domains shown, also called VH5:VL4) VH: QVQLQESGPGLVKPSETLSLTCTVSGFSLTSYGVTWIRQPPGKGLEWIGVIWGDGSTNYHSGLRSRVTISVDTSKNQFSLKLSSVTAADTAVYYCAKPIYYDFDDDAMDYWGQGTSVTVSS VL: DIVMTQSPATLSLSPGDRATLSCKASQNVGTYVAWYQQKPGQAPRLLIYSASYRCSGIPARFSGSGSGTDFTLTISSLQSEDFAVYYCHQYNNYPLTFGGGTKVEIKR
OUTPUT: 0.554 nM

Turning to the following binder.
INPUT: May I ask what Kd has been recorded for HC2 LC3 humanized Fab (Fab, V domains shown, also called VH2:VL3) VH: EVQLVESGPGLVKPSETLSLTCTVSGFSLTSYGVTWIRQPPGKGLEWIGVIWGDGSTNYHSGLRSRVTISVDTSKNQFSLKLSSVTAADTAVYYCAKPIYYDFDDDAMDYWGQGTLVTVSS VL: DIQLTQSPSTLSASVGDRVTITCKASQNVGTYVAWYQQKPGKAPKLLIYSASYRCSGVPSRFSGSGSGTEFTLTISSLQPDDFTTYYCHQYNNYPLTFGQGTKVEIKR ?
OUTPUT: 0.25 nM
